Target: bovine serum albumin (BSA) (Bos taurus)
Construct: gene ALB
Sequence (P02769 25-607): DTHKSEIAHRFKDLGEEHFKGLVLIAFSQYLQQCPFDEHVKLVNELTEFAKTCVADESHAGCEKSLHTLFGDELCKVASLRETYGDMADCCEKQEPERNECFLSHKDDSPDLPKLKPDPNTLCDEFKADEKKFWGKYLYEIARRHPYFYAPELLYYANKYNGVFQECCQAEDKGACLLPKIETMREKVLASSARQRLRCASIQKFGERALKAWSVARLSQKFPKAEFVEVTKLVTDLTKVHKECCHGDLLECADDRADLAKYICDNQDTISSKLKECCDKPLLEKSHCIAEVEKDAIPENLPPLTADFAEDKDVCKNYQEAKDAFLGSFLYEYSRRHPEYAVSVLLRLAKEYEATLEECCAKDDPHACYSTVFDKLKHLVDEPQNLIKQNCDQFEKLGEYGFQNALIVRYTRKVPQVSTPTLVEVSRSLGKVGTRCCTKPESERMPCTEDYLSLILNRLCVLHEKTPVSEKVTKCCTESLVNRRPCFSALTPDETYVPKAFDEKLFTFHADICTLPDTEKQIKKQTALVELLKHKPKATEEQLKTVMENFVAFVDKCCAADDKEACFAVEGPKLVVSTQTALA
Assay: intrinsic tryptophan fluorescence quenching titration (apparent kD); supported by CD spectra and CD melting (ΔTm +[…] °C)
Format: binding
Property Name: pKd
The value called pKd is obtained by taking minus log10 of the concentration in mol/L.

Q: Any idea what its pKd is? The compound is CCCCOC(=O)c1c(N)oc2ccc(O)c(-c3ccc([N+](=O)[O-])cc3)c12
Result: 7.55
